target: deoxycytidine kinase (dCK) (Homo sapiens); assay: Inhibition of [3H]-deoxycytidine (dCyd) uptake by CEM cells
Sequence (P27707 whole entry): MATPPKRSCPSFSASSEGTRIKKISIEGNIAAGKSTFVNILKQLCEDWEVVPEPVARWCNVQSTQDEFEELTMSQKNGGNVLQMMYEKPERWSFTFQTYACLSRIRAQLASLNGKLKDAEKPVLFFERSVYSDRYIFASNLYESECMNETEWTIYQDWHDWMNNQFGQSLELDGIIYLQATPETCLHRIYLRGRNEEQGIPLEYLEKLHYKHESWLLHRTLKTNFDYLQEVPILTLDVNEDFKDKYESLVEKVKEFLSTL
Recorded measurements of EC50, one per entry
Please give a number only; it is taken to be in nM.

COc1ccc(Br)cc1-c1nc(CSc2nc(N)cc(N)n2)cs1 = 779
COc1ccc(-c2nc(CSc3nc(N)cc(N)n3)cs2)cc1 = 478
CCOc1ccc(-c2nc(CSc3nc(N)cc(N)n3)cs2)cc1OC = 133

Kindly review the next molecule as well.
Prompt: Would you mind telling me what EC50 value was observed for "CCCc1sc(-c2ccnc(OCCO)c2)nc1CSc1nc(N)cc(N)n1" ?
Completion: 2.5
